# Target desc: Glutamate NMDA receptor
# Test method notes: Displacement of [3H]CGP39653 from NMDA receptor in Sprague-Dawley rat brain cortical synaptic membranes after 1 hr by liquid scintillation counting v
Measure name: Ki (µM)

Q) Please look up its Ki: N[C@H](C/C=C/c1cscc1C(=O)O)C(=O)O
A) 52

1 = N[C@H](CCCc1ccccc1C(=O)O)C(=O)O
2 = N[C@H](CCCc1cscc1C(=O)O)C(=O)O
Q) Given 1 and 2 , report the one with the higher recorded Ki. Provide the label of your selected option as the answer.
A) 1
(1: 32 µM, 2: 14 µM)

Values were extracted from ChEMBL document CHEMBL3232978.
